// reported pIC50 for each item listed
Assay: Inhibition of 1-monooleoyl glycerol (MOG) induced beta-hematin formation
The quantity pIC50 is defined as the negative base-10 logarithm of the molar concentration.

CC(C)CN(CCCN1CCN(CCCNc2ccnc3ccccc23)CC1)CC(C)C | 4.21
CC(C)CN(CCCN1CCN(CCCNc2nc3ccccc3[nH]2)CC1)CC(C)C | 4.20

Now turn to the next compound.
Exam item: Could you share which pIC50 value was measured for CC(C)CN(CCCN1CCN(CCCNc2ccnc3cc(Cl)ccc23)CC1)CC(C)C ?
Marked response: 4.36

----------
Assay: Inhibition of 1-monooleoyl glycerol (MOG) induced beta-hematin formation
pIC50: −log10 of the molar value.
// reported pIC50 for each item listed

Worked set:
CC(C)CN(CCCN1CCN(CCCNCc2ccncc2)CC1)CC(C)C | < 3.70
CC(C)CN(CCCN1CCN(CCCNc2cnccn2)CC1)CC(C)C | < 3.70

Now turn to the next compound.
Exam item: Could you share which pIC50 value was measured for CC(C)CN(CCCN1CCN(CCCNc2nc3ccccc3o2)CC1)CC(C)C ?
Marked response: < 3.70
